assay: Selectivity ratio, ratio of IC50 for ETB receptor to IC50 for ETA receptor
ENDPOINT LABEL: Ratio IC50

STRUCTURE SMILES STRING | Ratio IC50
CCc1cc2c(cc1Cn1c(C(=O)O)c(Cc3cccc(C(=O)O)c3)c(=O)c3cc(OCC(=O)O)ccc31)OCO2 | 5

1 = CCc1cc2c(cc1Cn1c(C(=O)O)c(Cc3cccc(C(=O)O)c3)c(=O)c3cc(OCOC)ccc31)OCO2
2 = CCOc1ccc2c(c1)c(=O)c(Cc1cccc(C(=O)O)c1)c(C(=O)O)n2Cc1cc2c(cc1CC)OCO2
### Prompt // returns 1 or 2 , whichever has the lower Ratio IC50 To answer, give the label that identifies your chosen option.
### Response 1

###

target: UniProtKB P25101; test: Displacement of [125I]ET1 from ETA receptor expressed in african green monkey CCL-81 cells monolayer
pIC50: −log10 of the molar value.
ENDPOINT LABEL: pIC50

MOLECULE | pIC50
CCc1cc2c(cc1Cn1c(C(=O)O)c(Cc3cccc(C(=O)O)c3)c(=O)c3ccccc31)OCO2 | 9.16
CCc1cc2c(cc1Cn1c(C(=O)O)c(Cc3cccc(C(=O)O)c3)c(=O)c3cc(OC(C)CC)ccc31)OCO2 (configuration not stated) | 8.00
C=CCOc1ccc2c(c1)c(=O)c(Cc1cccc(C(=O)O)c1)c(C(=O)O)n2Cc1cc2c(cc1CC)OCO2 | 7.42
CCc1cc2c(cc1Cn1c(C(=O)O)c(Cc3cccc(C(=O)O)c3)c(=O)c3cc(OCCCO)ccc31)OCO2 | 8.13

P = CC(C)C[C@@H]1NC(=O)[C@@H](C(C)C)NC(=O)[C@@H]2CCCN2C(=O)C(CC(=O)O)NC(=O)[C@@H](Cc2c[nH]c3ccccc23)NC1=O (single isomer, unassigned)
Q = CCCOc1ccc2c(c1)c(=O)c(Cc1cccc(C(=O)O)c1)c(C(=O)O)n2Cc1cc2c(cc1CC)OCO2
R = CCc1cc2c(cc1Cn1c(C(=O)O)c(Cc3cccc(C(=O)O)c3)c(=O)c3cc(O)ccc31)OCO2
### Prompt Write the entries in order, lowest recorded pIC50 first. Output the labels ranked as instructed.
### Response R, P, Q
(R: 7.41, P: 7.61, Q: 9.96)

###

experiment: Selectivity ratio, ratio of IC50 for ETB receptor to IC50 for ETA receptor
ENDPOINT LABEL: Ratio IC50

Some molecules with recorded Ratio IC50:
STRUCTURE SMILES STRING | REPORTED VALUE
CCc1cc2c(cc1Cn1c(C(=O)O)c(Cc3cccc(C(=O)O)c3)c(=O)c3cc(OCC(C)C)ccc31)OCO2 | 315
CCc1cc2c(cc1Cn1c(C(=O)O)c(Cc3cccc(C(=O)O)c3)c(=O)c3cc(O)ccc31)OCO2 | 399
CCCCOc1ccc2c(c1)c(=O)c(Cc1cccc(C(=O)O)c1)c(C(=O)O)n2Cc1cc2c(cc1CC)OCO2 | 381
CCc1cc2c(cc1Cn1c(C(=O)O)c(Cc3cccc(C(=O)O)c3)c(=O)c3cc(OC(C)C)ccc31)OCO2 | 50
CCc1cc2c(cc1Cn1c(C(=O)O)c(Cc3cccc(C(=O)O)c3)c(=O)c3ccccc31)OCO2 | 827

a = C=CCOc1ccc2c(c1)c(=O)c(Cc1cccc(C(=O)O)c1)c(C(=O)O)n2Cc1cc2c(cc1CC)OCO2
b = CCCOc1ccc2c(c1)c(=O)c(Cc1cccc(C(=O)O)c1)c(C(=O)O)n2Cc1cc2c(cc1CC)OCO2
c = CCc1cc2c(cc1Cn1c(C(=O)O)c(Cc3cccc(C(=O)O)c3)c(=O)c3cc(OCCCO)ccc31)OCO2
### Prompt Order each entry by recorded Ratio IC50, climbing from the minimum. Give the order by naming the labels one after another as requested.
### Response a, c, b

###

target: Endothelin-1 receptor (Homo sapiens, UniProt P25101); assay: Displacement of [125I]ET1 from ETA receptor expressed in african green monkey CCL-81 cells monolayer
Sequence (P25101 whole entry): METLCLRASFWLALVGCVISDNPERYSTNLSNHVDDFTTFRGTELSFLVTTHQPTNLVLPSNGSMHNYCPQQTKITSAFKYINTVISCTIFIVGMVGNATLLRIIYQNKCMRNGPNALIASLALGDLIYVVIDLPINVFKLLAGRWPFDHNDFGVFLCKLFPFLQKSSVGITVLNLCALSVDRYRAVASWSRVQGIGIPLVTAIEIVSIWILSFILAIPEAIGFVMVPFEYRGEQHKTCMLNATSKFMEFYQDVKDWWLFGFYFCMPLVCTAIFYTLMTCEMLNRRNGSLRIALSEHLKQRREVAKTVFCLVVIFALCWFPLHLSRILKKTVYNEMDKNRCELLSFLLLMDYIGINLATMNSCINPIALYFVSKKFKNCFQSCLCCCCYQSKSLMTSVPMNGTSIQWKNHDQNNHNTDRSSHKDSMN
ENDPOINT LABEL: IC50 (nM)

Reference set, count: 4
STRUCTURE SMILES STRING | ENDPOINT LABEL | REPORTED VALUE
CCc1cc2c(cc1Cn1c(C(=O)O)c(Cc3cccc(C(=O)O)c3)c(=O)c3cc(OCOC)ccc31)OCO2 | IC50 | 24.4
CCCCOc1ccc2c(c1)c(=O)c(Cc1cccc(C(=O)O)c1)c(C(=O)O)n2Cc1cc2c(cc1CC)OCO2 | IC50 | 1.44
CCc1cc2c(cc1Cn1c(C(=O)O)c(Cc3cccc(C(=O)O)c3)c(=O)c3cc(OCC(=O)O)ccc31)OCO2 | IC50 | 285
CCc1cc2c(cc1Cn1c(C(=O)O)c(Cc3cccc(C(=O)O)c3)c(=O)c3cc(OCC(C)C)ccc31)OCO2 | IC50 | 6.3

A = CCOc1ccc2c(c1)c(=O)c(Cc1cccc(C(=O)O)c1)c(C(=O)O)n2Cc1cc2c(cc1CC)OCO2
B = CCc1cc2c(cc1Cn1c(C(=O)O)c(Cc3cccc(C(=O)O)c3)c(=O)c3cc(OCC4CC4)ccc31)OCO2
C = CCc1cc2c(cc1Cn1c(C(=O)O)c(Cc3cccc(C(=O)O)c3)c(=O)c3cc(OC(C)C)ccc31)OCO2
D = CCCCCOc1ccc2c(c1)c(=O)c(Cc1cccc(C(=O)O)c1)c(C(=O)O)n2Cc1cc2c(cc1CC)OCO2
### Prompt Rank the 4 compounds: largest IC50 first, smallest last. API: response body holds the labels in the requested order.
### Response D, B, C, A

###

Target: Endothelin receptor type B (Homo sapiens)
Sequence (P24530 whole entry): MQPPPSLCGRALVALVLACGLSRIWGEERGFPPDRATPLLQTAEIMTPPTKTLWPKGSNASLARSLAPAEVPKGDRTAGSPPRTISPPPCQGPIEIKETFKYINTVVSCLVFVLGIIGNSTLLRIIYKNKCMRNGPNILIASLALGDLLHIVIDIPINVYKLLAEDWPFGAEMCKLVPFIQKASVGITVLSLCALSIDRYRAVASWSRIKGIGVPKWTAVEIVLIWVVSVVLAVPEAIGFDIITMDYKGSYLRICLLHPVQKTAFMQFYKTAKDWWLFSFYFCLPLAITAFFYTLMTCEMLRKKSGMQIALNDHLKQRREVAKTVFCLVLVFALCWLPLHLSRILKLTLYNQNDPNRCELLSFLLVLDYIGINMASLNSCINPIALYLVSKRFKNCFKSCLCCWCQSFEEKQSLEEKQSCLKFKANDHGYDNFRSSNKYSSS
ENDPOINT LABEL: IC50 (µM)

a = CCOc1ccc2c(c1)c(=O)c(Cc1cccc(C(=O)O)c1)c(C(=O)O)n2Cc1cc2c(cc1CC)OCO2
b = CCCOc1ccc2c(c1)c(=O)c(Cc1cccc(C(=O)O)c1)c(C(=O)O)n2Cc1cc2c(cc1CC)OCO2
c = CCc1cc2c(cc1Cn1c(C(=O)O)c(Cc3cccc(C(=O)O)c3)c(=O)c3cc(OCC(C)C)ccc31)OCO2
### Prompt List from greatest to least IC50. # list labels per requested ordering
### Response a, c, b
(a: 3.12 µM, c: 1.98 µM, b: 0.913 µM)

Value source: ChEMBL document CHEMBL1268959
